Data provenance is patent US20230212131A1.

- System: collagen 1 (COL1)
- methodDescription: WI-38 collagen 1 inhibition assay
- Format: cell-based, human
- setupConditions: Cellular EC50, WI-38 cells; values are classes of LogEC50
endpoint: COL1 Efficacy (LogEC50)

Below, each entry is followed by its recorded COL1 Efficacy (LogEC50) result.
COc1cc(OC)cc(-c2csc(NC(=O)c3ccc(N4CCOCC4)cc3)n2)c1 [compound 353] | +++ (+++: <−6)
O=C(Nc1nc(-c2ccccc2Cl)cs1)c1ccc(N2CCCC2=O)cn1 [compound 465] | − (−: inactive)
COc1ccc(C(=O)Nc2nc(-c3cccnc3C)cs2)cc1 [Compound 343] | +++ (+++: <−6)
Cc1ncccc1-c1csc(NC(=O)c2ccc(N3CCOCC3)cc2)n1 [compound 369] | ++ (++: −5 to −6)
O=C(Nc1nc(-c2ccccc2Cl)cs1)C12CC(C(=O)N3CCOCC3)(C1)C2 [compound 420] | + (+: >−5)

Now for another entry.
Given item COc1ccc(C(=O)Nc2nc(-c3ccccc3F)cs2)cc1 [Compound 336] , the value recorded as its COL1 Efficacy (LogEC50) is ++ (++: −5 to −6)

* * *

- Test system: collagen 1 (COL1)
- methodDescription: WI-38 collagen 1 inhibition assay
- Format: cell-based, human
- setupConditions: Cellular EC50, WI-38 cells; values are classes of LogEC50
endpoint: COL1 Efficacy (LogEC50)

Below, each entry is followed by its recorded COL1 Efficacy (LogEC50) result.
O=C(Nc1nc(-c2ccccc2Cl)cs1)c1ccc(N2CCN(C(=O)CCO)CC2)cn1 | +++ (+++: <−6)
O=C(Nc1nc(-c2ccccc2Cl)cs1)c1ccc(N2CCC[C@H](O)C2)cn1 | +++ (+++: <−6)
O=C(Nc1nc(-c2ccccc2Cl)cs1)c1ccc(N2CCC(CCO)CC2)cn1 | +++ (+++: <−6)
COCCOc1ccccc1-c1csc(NC(=O)c2ccc(C)nc2)n1 | ++ (++: −5 to −6)
NC1CCN(c2ccc(C(=O)Nc3nc(-c4ccccc4Cl)cs3)nc2)CC1 | +++ (+++: <−6)

Given item "CN1CCC(Oc2ccc(C(=O)Nc3nc(-c4ccccc4Cl)cs3)nc2)CC1" , the value recorded as its COL1 Efficacy (LogEC50) is +++ (+++: <−6)

Given item CN1CCCC(C(=O)N2CCN(c3ccc(C(=O)Nc4nc(-c5ccccc5Cl)cs4)nc3)CC2)C1 (centres unmarked) , the value recorded as its COL1 Efficacy (LogEC50) is +++ (+++: <−6)

Given item "COc1ccc(C(=O)Nc2nc(-c3ccc(Cl)cc3Cl)cs2)cc1" , the value recorded as its COL1 Efficacy (LogEC50) is ++ (++: −5 to −6)

Given item "Cc1ccc(C(=O)Nc2nc(-c3ccc(Cl)cc3Cl)cs2)cc1" , the value recorded as its COL1 Efficacy (LogEC50) is +++ (+++: <−6)

Given item "COc1ccc(C(=O)Nc2nc(-c3cccnc3)cs2)cc1" , the value recorded as its COL1 Efficacy (LogEC50) is ++ (++: −5 to −6)

* * *

- System: collagen 1 (COL1)
- methodDescription: WI-38 collagen 1 inhibition assay
- Format: cell-based, human
- setupConditions: Cellular EC50, WI-38 cells; values are classes of LogEC50
endpoint: COL1 Efficacy (LogEC50)

Below, each entry is followed by its recorded COL1 Efficacy (LogEC50) result.
O=C(Nc1nc(-c2ccccc2Cl)cs1)c1ccc(N2CCOCC2)cc1 | +++ (+++: <−6)
CN1CC2(CCN(c3ccc(C(=O)Nc4nc(-c5ccccc5Cl)cs4)nc3)CC2)C1 | +++ (+++: <−6)
Cc1ccc(C(=O)Nc2nc(-c3cc(Cl)sc3Cl)cs2)cc1 | +++ (+++: <−6)
CN1CCC(C(=O)N2CCN(c3ccc(C(=O)Nc4nc(-c5ccccc5Cl)cs4)nc3)CC2)CC1 | +++ (+++: <−6)

Given item "C#CCCC1(CCN2CCN(c3ccc(C(=O)Nc4nc(-c5ccccc5Cl)cs4)cc3)CC2)N=N1" , the value recorded as its COL1 Efficacy (LogEC50) is +++ (+++: <−6)

Given item "CN(C(=O)c1ccc(N2CCOCC2)cn1)c1nc(-c2ccccc2Cl)cs1" , the value recorded as its COL1 Efficacy (LogEC50) is ++ (++: −5 to −6)

Given item "O=C(Nc1nc(-c2ccccc2Cl)cs1)C1CN(C2CCOCC2)C1" , the value recorded as its COL1 Efficacy (LogEC50) is ++ (++: −5 to −6)

* * *

- Test system: collagen 1 (COL1)
- methodDescription: WI-38 collagen 1 inhibition assay
- Type: cell-based, human
- setupConditions: Cellular EC50, WI-38 cells; values are classes of LogEC50
endpoint: COL1 Efficacy (LogEC50)

Below, each entry is followed by its recorded COL1 Efficacy (LogEC50) result.
CC(=O)N1CC2(C1)CN(c1ccc(C(=O)Nc3nc(-c4ccccc4Cl)cs3)nc1)C2 | +++ (+++: <−6)
O=C(Nc1nc(-c2ccccc2Cl)cs1)c1ccc(C(=O)N2CCS(=O)(=O)CC2)cc1 | ++ (++: −5 to −6)
O=C(Nc1nc(-c2ccccc2Cl)cs1)c1ccc(N2CCN3CCCC3C2)cn1 (stereo not drawn) | +++ (+++: <−6)
O=C(Nc1nc(-c2ccccc2Cl)cs1)c1ccc(C2CCOCC2)cn1 | +++ (+++: <−6)
COc1cc(N2CCOCC2)ccc1C(=O)Nc1nc(-c2ccccc2Cl)cs1 | ++ (++: −5 to −6)
O=C(Nc1nc(-c2ccccc2Cl)cs1)c1ccc(N2CCC3(CC2)COC3)cn1 | +++ (+++: <−6)
O=C(Nc1nc(-c2ccc(Cl)cc2Cl)cs1)C1CCOCC1 | ++ (++: −5 to −6)
COc1ccccc1-c1csc(NC(=O)c2ccc(N3CCOCC3)cc2)n1 | +++ (+++: <−6)
Cc1ncccc1-c1csc(NC(=O)c2cnc(N3CCOCC3)nc2)n1 | + (+: >−5)
CN1CCN(c2ccc(C(=O)Nc3nc(-c4ccccc4Cl)cs3)cc2)CC1 | +++ (+++: <−6)

Given item "CN(C)Cc1ccccc1-c1csc(NC(=O)c2ccc(N3CCN(S(C)(=O)=O)CC3)cn2)n1" , the value recorded as its COL1 Efficacy (LogEC50) is ++ (++: −5 to −6)

Given item "COCc1ccccc1-c1csc(NC(=O)c2ccc(N3CCC(O)CC3)cn2)n1" , the value recorded as its COL1 Efficacy (LogEC50) is +++ (+++: <−6)

Given item "CN(C)C(=O)c1ccc(C(=O)Nc2nc(-c3ccccc3Cl)cs2)cc1" , the value recorded as its COL1 Efficacy (LogEC50) is ++ (++: −5 to −6)

* * *

- Test system: collagen 1 (COL1)
- methodDescription: WI-38 collagen 1 inhibition assay
- Assay type: cell-based, human
- setupConditions: Cellular EC50, WI-38 cells; values are classes of LogEC50
endpoint: COL1 Efficacy (LogEC50)

Below, each entry is followed by its recorded COL1 Efficacy (LogEC50) result.
O=C(Nc1nc(-c2ccccc2Cl)cs1)c1ccc(C(=O)N2CCOCC2)cc1 [compound 384] | ++ (++: −5 to −6)
CN(C)CCC(=O)N1CCN(c2ccc(C(=O)Nc3nc(-c4ccccc4Cl)cs3)nc2)CC1 [Compound 444] | +++ (+++: <−6)
CS(=O)(=O)N1CCN(c2ccc(C(=O)Nc3nc(-c4ccccc4Cl)cs3)nc2)CC1 [Compound 403] | +++ (+++: <−6)
COc1ccc(C(=O)Nc2nc(-c3cnccc3C)cs2)cc1 [Compound 333] | ++ (++: −5 to −6)
COc1ccc(C(=O)Nc2nc(-c3ccc(C)cc3C)cs2)cc1 [Compound 301] | +++ (+++: <−6)

Given item CN(C)CC(=O)N1CCN(c2ccc(C(=O)Nc3nc(-c4ccccc4Cl)cs3)nc2)CC1 [Compound 443] , the value recorded as its COL1 Efficacy (LogEC50) is +++ (+++: <−6)

Given item O=C(Nc1nc(-c2ccccc2Cl)cs1)c1ccc(N2CCNCC2)cc1 [Compound 334] , the value recorded as its COL1 Efficacy (LogEC50) is +++ (+++: <−6)

* * *

- System: collagen 1 (COL1)
- methodDescription: WI-38 collagen 1 inhibition assay
- Format: cell-based, human
- setupConditions: Cellular EC50, WI-38 cells; values are classes of LogEC50
- From the text: All compounds were profiled for cellular potency in inhibition of collagen 1 (COL1) protein translation using a phenotypic screening platform. […] Cell images were taken with Operetta (Perkin Elmer, USA), a wide-field fluorescence microscope at 20× magnification. […] In Columbus, cells were identified by their nucleus, using the “Find Nuceli” module and cytoplasm was detected based on the secondary antibody channel. […]
endpoint: COL1 Efficacy (LogEC50)

O=C(Nc1nc(-c2ccccc2Cl)cs1)c1ccc(N2CCCC2)cn1 [compound 481] | +++ (+++: <−6)
COc1ccc(C(=O)Nc2nc(-c3ccc(F)cc3F)cs2)cc1 [Compound 325] | +++ (+++: <−6)
COc1ccc(C(=O)Nc2nc(-c3cc(Cl)cc(Cl)c3)cs2)cc1 [Compound 315] | +++ (+++: <−6)
